# target.or.system: H^+ /K^+ ATPase (Oryctolagus cuniculus, UniProt P27112)
# Construct: Rabbit gastric glands are isolated from gastric mucosa; from tissue; host or cells: rabbit isolated gastric glands (gastric mucosa, corpus region of the stomach)
# Sequence (P27112 whole entry): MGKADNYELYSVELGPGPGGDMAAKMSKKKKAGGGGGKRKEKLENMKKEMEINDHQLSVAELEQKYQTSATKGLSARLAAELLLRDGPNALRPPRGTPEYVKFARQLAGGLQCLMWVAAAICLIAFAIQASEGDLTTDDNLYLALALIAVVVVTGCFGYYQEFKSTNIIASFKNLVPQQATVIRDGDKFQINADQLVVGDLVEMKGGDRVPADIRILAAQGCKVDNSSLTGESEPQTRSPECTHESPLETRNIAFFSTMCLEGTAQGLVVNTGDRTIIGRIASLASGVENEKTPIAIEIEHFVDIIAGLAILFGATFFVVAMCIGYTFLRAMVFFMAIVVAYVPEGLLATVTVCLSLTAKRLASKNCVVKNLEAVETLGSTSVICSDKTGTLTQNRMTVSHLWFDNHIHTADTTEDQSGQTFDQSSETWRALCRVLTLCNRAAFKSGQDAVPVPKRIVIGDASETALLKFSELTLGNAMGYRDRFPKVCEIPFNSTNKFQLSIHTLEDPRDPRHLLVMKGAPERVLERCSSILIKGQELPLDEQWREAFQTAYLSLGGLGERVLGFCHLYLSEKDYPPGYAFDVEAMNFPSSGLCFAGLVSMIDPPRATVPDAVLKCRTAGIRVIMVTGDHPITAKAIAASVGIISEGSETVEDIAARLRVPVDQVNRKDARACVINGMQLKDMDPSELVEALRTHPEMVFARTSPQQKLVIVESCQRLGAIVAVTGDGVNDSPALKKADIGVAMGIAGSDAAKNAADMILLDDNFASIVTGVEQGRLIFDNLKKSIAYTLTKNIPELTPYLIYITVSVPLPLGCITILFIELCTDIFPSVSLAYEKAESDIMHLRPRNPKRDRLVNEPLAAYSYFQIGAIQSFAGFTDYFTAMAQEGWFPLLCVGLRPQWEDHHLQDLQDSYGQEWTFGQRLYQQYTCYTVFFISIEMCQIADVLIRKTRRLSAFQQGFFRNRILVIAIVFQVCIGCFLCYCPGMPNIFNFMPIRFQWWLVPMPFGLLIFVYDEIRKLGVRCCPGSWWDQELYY
# Sequence (P18597 whole entry partner): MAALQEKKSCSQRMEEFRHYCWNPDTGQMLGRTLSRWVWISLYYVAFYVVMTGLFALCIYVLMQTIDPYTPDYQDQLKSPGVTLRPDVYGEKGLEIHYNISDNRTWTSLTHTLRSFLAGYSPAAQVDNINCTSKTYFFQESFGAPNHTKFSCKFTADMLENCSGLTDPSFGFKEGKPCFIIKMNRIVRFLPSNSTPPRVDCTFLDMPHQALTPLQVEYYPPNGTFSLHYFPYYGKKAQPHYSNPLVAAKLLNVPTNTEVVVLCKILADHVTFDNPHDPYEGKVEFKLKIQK
# assay.info: Inhibition of 14C-aminopyrine uptake in rabbit isolated gastric glands stimulated by DBcAMP or high K+ (anti-secretory activity)
# Assay type: cell-based
# measurement.parameters: 10^-4 M; 14C-aminopyrine uptake in rabbit gastric glands stimulated by DBcAMP; % inhibition of maximum response to secretagogue; read-out: % Inhibition to stimulation by: DBcAMP
recorded.metric: inhibition at 100 µM (%)
Please respond with the number in % and leave the unit unwritten.

# annotated cases, reported inhibition at 100 µM shown
O=C(Nc1ccc([N+](=O)[O-])cc1)c1cc[n+]([O-])cc1 ... 33
Nc1ccccc1NC(=O)c1cc[n+]([O-])cc1 ... 106
O=C(Nc1ccc(Cl)cc1NC(=O)c1cc[n+]([O-])cc1)c1cc[n+]([O-])cc1 ... 20.5

Turning now to a further compound:
Consider the compound O=C(Nc1ccc(Cl)cc1)c1cc[n+]([O-])cc1 and give its measured inhibition at 100 µM. 22
